protocol.summary: water-octanol distribution coefficient (log P value)
Assay type: physicochemical
condition.summary: value defined by OECD Test Guideline 107
observed.property: water-octanol distribution coefficient (log P)

P = CCCCC(O)CO (stereo not drawn)
Q = CCCC(=O)OCC(O)COC(=O)CCC
Returns the identifier with the smallest measured water-octanol distribution coefficient (log P) among P and Q . Answer format: the label of the selected item. P

---

protocol.summary: water-octanol distribution coefficient (log P value)
Format: physicochemical
condition.summary: octanol/water; value defined by OECD Test Guideline 107
observed.property: logP

1 = CC(C)CCOCC(O)CO (stereo not drawn)
2 = C=C(C)C(=O)OCC(O)CO (stereo not drawn) [glycerin 1-methacrylate]
3 = CC(C)CCC(C)(O)C#CC(C)(O)CCC(C)C (stereo not drawn)
Arrange the 3 compounds by rising logP, starting with the smallest. Could you list the labels in the order requested? 2, 1, 3

---

protocol.summary: water-octanol distribution coefficient (log P value)
Format: physicochemical
condition.summary: value defined by OECD Test Guideline 107
observed.property: water-octanol distribution coefficient (log P)

I = CCCCC(CC)C(=O)OCC(O)CO (stereo not shown) [2-ethylhexanoate 2,3-dihydroxypropyl]
II = CCCC(=O)OCC(O)CO (stereo not shown)
Which entry has a larger number for water-octanol distribution coefficient (log P), I or II ? To answer, give the label that identifies your chosen option. I
(I: 1.73, II: −0.21)

P = CCCCCC(=O)OCC(O)CO (stereo not shown)
Q = CCCCCCCC(O)CCCC(=O)OCC(O)CO (stereo not shown) [5-hydroxydodecanoate 2,3-dihydroxypropyl]
Field: entry with larger water-octanol distribution coefficient (log P) (options P / Q ). Lab log: write the label of the selected item as the result. Q
